# key: entry, value: SPOT peptide array binding signal intensity
Molecular target: ScMyo3
Experiment: SPOT peptide array binding signal intensity (averaged, normalized) (arbitrary units (background-subtracted, floor 0; scale differs between SH3 domains)); higher = stronger binding of the SH3 domain to the peptide

Here's what some known entries look like.
QRKSLRRPTLSKPAV	0.5
LTRRFPFLFPFDTRM	2.5
HKVLRPFLLRRLKKD	1.12

Entry "QGYPRQPQRPQRYHP" , SPOT peptide array binding signal intensity reported as ≤ 0
